I'd be grateful if you could share measured melting point for these entries.

| Compound | melting point |
| --- | --- |
| O=C1NN=C(Nc2ccc(Cl)cc2)C1=Cc1ccc[nH]1 | 245 to 247 °C |
| Cc1cc(C)c(C=C2C(=O)NN=C2c2cccs2)[nH]1 | 235 to 237 °C |
| COc1ccc2[nH]c(C=C3C(=O)NN=C3c3cnccn3)cc2c1 | 272 to 274 °C |

# map each compound to its melting point
1. CCOC(=O)c1c(C)[nH]c(C=C2C(=O)NN=C2OCC)c1C
2. O=C1NN=C(CCc2ccc(Cl)cc2)C1=Cc1c[nH]c2ccccc12

1: 232 to 234 °C; 2: 271 to 272 °C
